Values compiled from paper PMC5760199.

- TARGET_SYSTEM: CPSF160FL;WDR33 M1-K410;CPSF30 ZF1-5;Fip1CD (Homo sapiens;Homo sapiens;Homo …, UniProt Q10570;Q9C0J8;O95639-3;Q6UN15-4 1-1443;1-410;1-169;130-195, |||)
- Sequence (Q10570 whole entry, chain 1 of 4): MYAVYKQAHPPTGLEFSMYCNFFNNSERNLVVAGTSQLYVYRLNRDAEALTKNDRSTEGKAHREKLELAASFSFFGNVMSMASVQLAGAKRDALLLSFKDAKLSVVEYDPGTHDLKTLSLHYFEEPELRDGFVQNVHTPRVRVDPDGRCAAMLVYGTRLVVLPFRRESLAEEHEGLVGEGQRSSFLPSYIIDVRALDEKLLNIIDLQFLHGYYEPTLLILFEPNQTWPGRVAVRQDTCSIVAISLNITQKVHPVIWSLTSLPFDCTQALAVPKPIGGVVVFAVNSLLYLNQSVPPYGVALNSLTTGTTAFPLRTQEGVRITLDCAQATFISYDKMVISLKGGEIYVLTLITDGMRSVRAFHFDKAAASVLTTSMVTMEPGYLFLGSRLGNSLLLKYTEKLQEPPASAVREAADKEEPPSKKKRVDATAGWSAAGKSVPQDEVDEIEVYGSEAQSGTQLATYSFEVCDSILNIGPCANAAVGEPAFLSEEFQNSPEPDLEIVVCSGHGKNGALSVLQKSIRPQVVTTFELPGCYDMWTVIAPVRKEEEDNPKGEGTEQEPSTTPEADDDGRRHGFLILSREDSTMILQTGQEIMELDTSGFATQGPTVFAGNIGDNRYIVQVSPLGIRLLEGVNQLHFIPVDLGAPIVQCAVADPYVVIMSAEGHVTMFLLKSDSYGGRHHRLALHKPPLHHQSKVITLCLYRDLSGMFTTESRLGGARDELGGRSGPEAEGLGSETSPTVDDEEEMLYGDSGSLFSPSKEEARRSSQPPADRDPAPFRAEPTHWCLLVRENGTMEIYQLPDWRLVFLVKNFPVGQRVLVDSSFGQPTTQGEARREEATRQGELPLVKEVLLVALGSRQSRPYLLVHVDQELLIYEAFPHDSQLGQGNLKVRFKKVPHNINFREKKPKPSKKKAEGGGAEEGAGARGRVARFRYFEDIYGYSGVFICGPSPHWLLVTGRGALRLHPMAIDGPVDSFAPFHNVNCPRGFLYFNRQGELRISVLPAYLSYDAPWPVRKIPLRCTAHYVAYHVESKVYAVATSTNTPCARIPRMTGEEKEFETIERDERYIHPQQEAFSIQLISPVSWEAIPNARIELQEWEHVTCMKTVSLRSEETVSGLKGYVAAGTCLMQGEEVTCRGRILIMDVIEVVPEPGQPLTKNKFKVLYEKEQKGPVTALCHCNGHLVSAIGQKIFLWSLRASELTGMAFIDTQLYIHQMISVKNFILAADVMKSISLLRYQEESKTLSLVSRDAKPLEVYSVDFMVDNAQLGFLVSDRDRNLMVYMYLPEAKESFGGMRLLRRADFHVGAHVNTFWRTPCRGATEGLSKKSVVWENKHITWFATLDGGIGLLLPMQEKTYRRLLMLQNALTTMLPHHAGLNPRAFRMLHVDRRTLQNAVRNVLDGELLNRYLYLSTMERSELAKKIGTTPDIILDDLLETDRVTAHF
- Sequence (Q9C0J8 1-410, chain 2 of 4): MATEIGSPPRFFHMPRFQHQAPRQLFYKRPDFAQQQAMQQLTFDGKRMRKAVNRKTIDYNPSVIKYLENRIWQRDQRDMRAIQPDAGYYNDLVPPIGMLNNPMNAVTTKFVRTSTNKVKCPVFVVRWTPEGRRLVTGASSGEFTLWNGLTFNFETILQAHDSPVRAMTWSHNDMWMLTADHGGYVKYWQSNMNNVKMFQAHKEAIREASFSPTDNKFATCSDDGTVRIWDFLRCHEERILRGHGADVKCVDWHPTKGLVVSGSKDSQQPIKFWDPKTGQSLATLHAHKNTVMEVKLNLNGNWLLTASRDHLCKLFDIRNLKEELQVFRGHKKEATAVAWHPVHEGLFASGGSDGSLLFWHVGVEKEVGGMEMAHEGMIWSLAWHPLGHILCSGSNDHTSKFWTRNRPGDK
- Sequence (O95639 1-169, chain 3 of 4): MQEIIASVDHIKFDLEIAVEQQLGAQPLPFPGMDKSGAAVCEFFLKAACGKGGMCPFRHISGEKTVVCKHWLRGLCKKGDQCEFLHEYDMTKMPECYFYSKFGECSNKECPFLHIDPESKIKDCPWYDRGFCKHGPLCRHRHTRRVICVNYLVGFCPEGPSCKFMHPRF
- Sequence (Q6UN15 145-210, chain 4 of 4): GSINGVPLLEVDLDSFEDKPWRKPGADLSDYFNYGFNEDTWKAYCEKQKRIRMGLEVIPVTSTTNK
- ASSAY_METHOD_TEXT: fluorescence polarization; 20 mM Tris pH 7.5, 150 mM NaCl, 1 mM DTT, 0.05% Tween 20, 25 C, 0.1 nM labelled RNA
- EXPERIMENTAL_CONDITIONS: protein: recombinant;recombinant;recombinant;recombinant; tags: His6 (438B vector; Ni-NTA and Streptactin purified);;; copies: 1;1;1;1; label: 5' Atto532
Attribute: Kd
MEASUREMENT_LABEL: Kd

[[record]]
binder = "CACACAAUAAAGGCAA (ssRNA) [L3 PAS RNA wild-type (AAUAAA)]"
experimental_result = "0.11 nM"

[[record]]
binder = "CACACAAGAAAGGCAA (ssRNA) [L3 PAS RNA mutant (AAGAAA)]"
experimental_result = "70 nM"

